- study target: T1, STXBP5 peptide complexed with HLA-A*02:01 on T2 cells (human)
- T1 construct: whole, on cells
- test name: flow cytometry, peptide-loaded T2 cells;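 also: binding of single-chain Fv antibody constructs, raised in XenoMouse, to peptide-pulsed T2 cells measured by flow cytometry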
Measured Signal/background by item
Form: value (number only, do not type unit).

binder="18182-B5 (scFv, scFv in bacterial lysate, detected with anti-Flag M2) scFv: EVQLLESGGGLVQPGGSLRLSCAASGFTFSSHAMSWVRQAPGKGLEWVSAISGSGGGTYYADSVKGRFTISRDNSKNTLYLQMNSLRAEDTAVYYCATGKGVHLGFDYWGQGTLVTVSSGGGGSGGGGSGGGGSELVLTQPPSVSVAPGQTARITCGGNNIGSKSVHWYQQKPGQAPVLVVYDDNDRPSGIPERFSGSNFGNTATLIISRVEAGDEADYYCQVWDSSSDHVVFGGGTKLTVL" assay_readout=Signal/background numeric_readout=1

// switching to the query binder
Reported Signal/background for 18179-D7 (scFv, scFv in bacterial lysate, detected with anti-Flag M2) scFv: EVQLLESGGGLVQPGGSLRLSCAASGFTFSNAWMSWVRQAPGKGLEWVGRIKGNTYGGTTDYAAPVKGRFTISRDDSKNTLFLQMNSLKTEDTAVYYCTTPSYSGSYYNYFSVMDVWGQGTTVTVSSGGGGSGGGGSGGGGSELVMTQSPSSLSASVGDRVTITCRTSQSISSYLNWYQQKPGRAPKLLIFAASSLQGGVPSRFSGSGSGTDFTLTISSLQPEDFATYYCQQTYSMPFTFGPGTKVDIK was 1
